Test system: chronic granulocytic leukemia cell strain K562
testDetails: In-vitro tumor cell proliferation inhibition, MTT
Type: cell-based, human
appliedConditions: 72 hours
IC50 under 100 nM gets Yes, anything at or over 100 nM gets No.

cpdSmiles: CN1CCN(c2ccc(Nc3ncc4nc(Nc5cc(Cl)cc(Cl)c5)n(C5CCCC5)c4n3)cc2)CC1
assignedCategory: No
--
cpdSmiles: CN1CCN(c2ccc(Nc3ncc4nc(Nc5cccc(O)c5)n(C5CCCC5)c4n3)cc2)CC1
assignedCategory: Yes
--
cpdSmiles: CC(C)n1c(Nc2cccc(Br)c2)nc2cnc(Nc3ccc(N4CCN(C)CC4)cc3)nc21
assignedCategory: No
--
cpdSmiles: C=CC(=O)Nc1cccc(Nc2ncc3nc(Nc4ccccc4)n(C(C)C)c3n2)c1
assignedCategory: No
--
cpdSmiles: CC(C)n1c(NC2CCCCC2)nc2cnc(Nc3ccc(N4CCN(C)CC4)cc3)nc21
assignedCategory: No
--
cpdSmiles: CN1CCN(c2ccc(Nc3ncc4nc(Nc5cc(F)ccc5F)n(C5CCCC5)c4n3)cc2)CC1
assignedCategory: Yes

Attention now turns to another entry.
Hello, I'm reviewing records and need to know if IC50 of `COCCOc1ccc(Nc2ncc3nc(Nc4ccccc4)n(C4CCCC4)c3n2)cc1` is below 100 nM. Could you check?
No
